Cited source: patent US20260078103A1

Record form. Attribute: pIC50. Fill in for each entry.
- System: phosphorylation of AKT (pAKT) in T47D cells expressing mutant PI3Ka (H1047R)
- protocol_summary: In vitro cell pAKT (Ser473) HTRF, T47D cells
- Type: cell-based
- details: Homo sapiens, T47D, 6 h, cellular pAKT, T47D cells, mutant PI3Ka (H1047R), 6 hours; read-out: Avg T-47D IC50
pIC50: −log10 of the molar value.

Query: Entry Cc1cc(C(C)Nc2ccccc2C(=O)O)c2cc(N3CC4CCC(C4)C3)n(C)c(=O)c2c1 (centres unmarked) , system phosphorylation of AKT (pAKT) in T47D cells expressing mutant PI3Ka (H1047R): what pIC50 was measured?
Response: 6.30 to 9.00

Query: Entry `Cc1cc([C@@H](C)Nc2ccccc2C(=O)O)c2cc(-c3cnc(C(C)(F)F)nc3)n(C)c(=O)c2c1` , system phosphorylation of AKT (pAKT) in T47D cells expressing mutant PI3Ka (H1047R): what pIC50 was measured?
Response: 6.30 to 9.00

Query: Entry `Cc1cc([C@@H](C)Nc2ccccc2C(=O)O)c2cc(-c3ccc(OCC(F)F)nc3)n(C)c(=O)c2c1` , system phosphorylation of AKT (pAKT) in T47D cells expressing mutant PI3Ka (H1047R): what pIC50 was measured?
Response: 6.30 to 9.00

Query: Entry `CON1CCN(c2cc3c([C@@H](C)Nc4ccccc4C(=O)O)cc(C)cc3c(=O)n2C)CC1` , system phosphorylation of AKT (pAKT) in T47D cells expressing mutant PI3Ka (H1047R): what pIC50 was measured?
Response: 6.30 to 9.00

Query: Entry `Cc1cc([C@@H](C)Nc2ccccc2C(=O)O)c2cc(N3CC(c4ccccn4)C3)n(C)c(=O)c2c1` , system phosphorylation of AKT (pAKT) in T47D cells expressing mutant PI3Ka (H1047R): what pIC50 was measured?
Response: 6.30 to 9.00

Query: Entry `Cc1cc([C@@H](C)Nc2ccccc2C(=O)O)c2cc(N3CCOCC3)n(C)c(=O)c2c1` , system phosphorylation of AKT (pAKT) in T47D cells expressing mutant PI3Ka (H1047R): what pIC50 was measured?
Response: 6.30 to 9.00

Query: Entry `CCOc1ncc(-c2cc3c([C@@H](C)Nc4cccc(F)c4C(=O)O)cc(F)cc3c(=O)n2C)s1` , system phosphorylation of AKT (pAKT) in T47D cells expressing mutant PI3Ka (H1047R): what pIC50 was measured?
Response: 6.30 to 9.00

Query: Entry `COCc1ncc(-c2cc3c([C@@H](C)Nc4ccccc4C(=O)O)cc(C)cc3c(=O)n2C)cc1F` , system phosphorylation of AKT (pAKT) in T47D cells expressing mutant PI3Ka (H1047R): what pIC50 was measured?
Response: 6.30 to 9.00

Query: Entry `Cc1cc([C@@H](C)Nc2ccccc2C(=O)O)c2cc(-c3ccc(C4CC4)nc3)n(C)c(=O)c2c1` , system phosphorylation of AKT (pAKT) in T47D cells expressing mutant PI3Ka (H1047R): what pIC50 was measured?
Response: 6.30 to 9.00

Query: Entry `C[C@@H](Nc1cccc(F)c1C(=O)O)c1cc(F)cc2c(=O)n(C)c(N3CC[C@H](C(F)(F)F)C3)cc12` , system phosphorylation of AKT (pAKT) in T47D cells expressing mutant PI3Ka (H1047R): what pIC50 was measured?
Response: 5.70 to 6.30

Query: Entry `Cc1cc([C@@H](C)Nc2ccccc2C(=O)O)c2cc(-c3cnc(C(F)F)nc3)n(C)c(=O)c2c1` , system phosphorylation of AKT (pAKT) in T47D cells expressing mutant PI3Ka (H1047R): what pIC50 was measured?
Response: 6.30 to 9.00

Query: Entry `C[C@@H](Nc1cccc(F)c1C(=O)O)c1cc(F)cc2c(=O)n(C)c(-c3cnc(-c4cncc(F)c4)c(F)c3)cc12` , system phosphorylation of AKT (pAKT) in T47D cells expressing mutant PI3Ka (H1047R): what pIC50 was measured?
Response: 6.30 to 9.00

Query: Entry `Cc1ccc(N2CCN(c3cc4c([C@@H](C)Nc5cccc(F)c5C(=O)O)cc(F)cc4c(=O)n3C)CC2)c(C)n1` , system phosphorylation of AKT (pAKT) in T47D cells expressing mutant PI3Ka (H1047R): what pIC50 was measured?
Response: 6.30 to 9.00

Query: Entry `Cc1ccc(N2CCN(c3cc4c([C@@H](C)Nc5ccccc5C(=O)O)cc(F)cc4c(=O)n3C)CC2)cn1` , system phosphorylation of AKT (pAKT) in T47D cells expressing mutant PI3Ka (H1047R): what pIC50 was measured?
Response: 6.30 to 9.00

Query: Entry `Cc1cc([C@@H](C)Nc2ccccc2C(=O)O)c2cc(N3CCN(c4ccccc4F)CC3)n(C)c(=O)c2c1` , system phosphorylation of AKT (pAKT) in T47D cells expressing mutant PI3Ka (H1047R): what pIC50 was measured?
Response: 6.30 to 9.00

Query: Entry `Cc1cc([C@@H](C)Nc2ccccc2C(=O)O)c2cc(N3CCN(c4cnc(C)s4)CC3)n(C)c(=O)c2c1` , system phosphorylation of AKT (pAKT) in T47D cells expressing mutant PI3Ka (H1047R): what pIC50 was measured?
Response: 6.30 to 9.00

Query: Entry Cc1cc(C(C)Nc2ccccc2C(=O)O)c2cc(-c3ccc(C)nc3)n(C)c(=O)c2c1 (centres unmarked) , system phosphorylation of AKT (pAKT) in T47D cells expressing mutant PI3Ka (H1047R): what pIC50 was measured?
Response: 6.30 to 9.00

Query: Entry `CCOc1ncc(-c2cc3c([C@@H](C)Nc4ccccc4C(=O)O)cc(F)cc3c(=O)n2C)s1` , system phosphorylation of AKT (pAKT) in T47D cells expressing mutant PI3Ka (H1047R): what pIC50 was measured?
Response: 6.30 to 9.00

Query: Entry `Cc1cc([C@@H](C)Nc2ccccc2C(=O)O)c2cc(Cl)n(C)c(=O)c2c1` , system phosphorylation of AKT (pAKT) in T47D cells expressing mutant PI3Ka (H1047R): what pIC50 was measured?
Response: 5.70 to 6.30

Query: Entry `CCOc1ncc(-c2c(F)c3c([C@@H](C)Nc4ccccc4C(=O)O)cc(C)cc3c(=O)n2C)s1` , system phosphorylation of AKT (pAKT) in T47D cells expressing mutant PI3Ka (H1047R): what pIC50 was measured?
Response: 6.30 to 9.00

Query: Entry `Cc1cc([C@@H](C)Nc2ccccc2C(=O)O)c2cc(-c3cnc4ccoc4c3)n(C)c(=O)c2c1` , system phosphorylation of AKT (pAKT) in T47D cells expressing mutant PI3Ka (H1047R): what pIC50 was measured?
Response: 6.30 to 9.00

Query: Entry `C[C@@H](Nc1ccccc1C(=O)O)c1cc(F)cc2c(=O)n(C)c(-c3cnc(-c4cnc(C(F)(F)F)nc4)c(F)c3)cc12` , system phosphorylation of AKT (pAKT) in T47D cells expressing mutant PI3Ka (H1047R): what pIC50 was measured?
Response: 6.30 to 9.00

Query: Entry `Cc1cc([C@@H](C)Nc2ccccc2C(=O)O)c2cc(N3CCn4nc(C)cc4C3)n(C)c(=O)c2c1` , system phosphorylation of AKT (pAKT) in T47D cells expressing mutant PI3Ka (H1047R): what pIC50 was measured?
Response: 6.30 to 9.00

Query: Entry `Cc1cc([C@@H](C)Nc2cccc(F)c2C(=O)O)c2cc(N3CCN(C)[C@@H](C(F)(F)F)C3)n(C)c(=O)c2c1` , system phosphorylation of AKT (pAKT) in T47D cells expressing mutant PI3Ka (H1047R): what pIC50 was measured?
Response: 6.30 to 9.00

Query: Entry Cc1cc(C(C)Nc2ccccc2C(=O)O)c2cc(N3C[C@@H]4[C@@H](C#N)[C@@H]4C3)n(C)c(=O)c2c1 (some centres unmarked) , system phosphorylation of AKT (pAKT) in T47D cells expressing mutant PI3Ka (H1047R): what pIC50 was measured?
Response: 5.70 to 6.30

Query: Entry `C[C@@H](Nc1ccccc1C(=O)O)c1cc(F)cc2c(=O)n(C)c(-c3cnc(Oc4cnn(C(F)F)c4)c(F)c3)cc12` , system phosphorylation of AKT (pAKT) in T47D cells expressing mutant PI3Ka (H1047R): what pIC50 was measured?
Response: 6.30 to 9.00

Query: Entry `C[C@@H](Nc1ccccc1C(=O)O)c1cc(F)cc2c(=O)n(C)c(-c3cnc(OC4CC4)s3)cc12` , system phosphorylation of AKT (pAKT) in T47D cells expressing mutant PI3Ka (H1047R): what pIC50 was measured?
Response: 6.30 to 9.00

Query: Entry Cc1cc(C(C)Nc2ccc(Cl)nc2C(=O)O)c2cc(N3CCC(C)(C)CC3)n(C)c(=O)c2c1 (centres unmarked) , system phosphorylation of AKT (pAKT) in T47D cells expressing mutant PI3Ka (H1047R): what pIC50 was measured?
Response: 5.70 to 6.30

Query: Entry `Cc1cc([C@@H](C)Nc2cccc(C)c2C(=O)O)c2cc(N3CCN(CC(F)(F)F)CC3)n(C)c(=O)c2c1` , system phosphorylation of AKT (pAKT) in T47D cells expressing mutant PI3Ka (H1047R): what pIC50 was measured?
Response: 4.82 to 5.70
